# TGT: human SSTR4 (Homo sapiens, UniProt P31391)
# Sequence (P31391 whole entry): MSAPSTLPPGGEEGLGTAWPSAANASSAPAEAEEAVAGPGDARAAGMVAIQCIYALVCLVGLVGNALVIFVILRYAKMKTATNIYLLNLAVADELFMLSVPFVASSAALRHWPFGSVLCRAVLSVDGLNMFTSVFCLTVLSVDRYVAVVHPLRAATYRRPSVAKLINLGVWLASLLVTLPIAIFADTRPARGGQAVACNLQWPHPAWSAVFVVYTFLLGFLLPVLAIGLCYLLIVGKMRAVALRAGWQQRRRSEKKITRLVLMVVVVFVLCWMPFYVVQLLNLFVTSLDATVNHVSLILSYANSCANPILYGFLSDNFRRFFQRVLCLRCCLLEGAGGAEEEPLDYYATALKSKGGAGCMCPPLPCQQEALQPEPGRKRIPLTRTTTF
# Type: cell-based
Positions of bridges follow the written chain, without caps; N, C: chain ends. Non-standard residues stand in square brackets, D forms with d. Residues, ends and D or L forms follow the SMILES beside them. Hyp = O=C(O)[C@@H]1C[C@@H](O)CN1
METRIC: increase in potency at SSTR4 (fold)
One number for each entry, in fold.

Give increase in potency at SSTR4 for CC(C)C[C@H](NC(=O)[C@@H]1C[C@@H](O)CN1C(=O)[C@@H]1CSSC[C@H](NC(=O)[C@@H](NC(=O)[C@@H]2CCCN2)C(C)C)C(=O)N[C@H](Cc2c[nH]c3ccccc23)C(=O)N[C@@H](CCCCN)C(=O)N[C@@H](Cc2ccccc2)C(=O)N[C@@H](CC(N)=O)C(=O)N1)C(=O)O [Fj1A17] (H-PVC[dW]KFNC[Hyp]L-OH; disulfide 3-8; N-terminus assumed) 6.8

Data origin: paper PMC12663243
